- measurementTarget: Tyrosine-protein kinase JAK3 [781-1124] (Homo sapiens, UniProt P52333)
- Sequence (P52333 781-1124): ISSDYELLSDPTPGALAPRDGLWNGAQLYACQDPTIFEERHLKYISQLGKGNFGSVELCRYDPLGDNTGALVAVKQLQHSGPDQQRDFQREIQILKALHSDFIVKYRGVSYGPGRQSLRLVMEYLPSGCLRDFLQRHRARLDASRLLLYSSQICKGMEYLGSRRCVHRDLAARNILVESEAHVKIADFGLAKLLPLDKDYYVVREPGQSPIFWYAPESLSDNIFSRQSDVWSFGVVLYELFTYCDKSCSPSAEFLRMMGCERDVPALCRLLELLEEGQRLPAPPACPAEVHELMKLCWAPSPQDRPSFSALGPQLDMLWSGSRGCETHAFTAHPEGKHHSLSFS
pIC50: −log10 of the molar value.
readoutType: pIC50

a: CC(C)C(=O)c1c[nH]c2ncc(-c3cccc(C=C(C#N)C(=O)N(C)C)c3)nc12 [US9187487, 37]
b: CC(C)(C)C(=O)c1c[nH]c2ncc(Nc3ccc(C=C4SC(=O)NC4=O)cc3)nc12 [US9187487, 65]
Challenge: Compare reported pIC50 values for a and b . Which is lower? Kindly give the label for the entry you pick.
Response given: a
(a: 6.72, b: 8.40)

The measured values listed here are drawn from BindingDB's records for patent US9187487.
